// data source = patent US20250074943A1

Target: T1, human DLL3 expressed on the surface of cells (human, UniProt Q9NYJ7 27-618)
T1 construct: Stably transfected CHO or HEK293 cells; also called huDLL3; hDLL3
T1 sequence: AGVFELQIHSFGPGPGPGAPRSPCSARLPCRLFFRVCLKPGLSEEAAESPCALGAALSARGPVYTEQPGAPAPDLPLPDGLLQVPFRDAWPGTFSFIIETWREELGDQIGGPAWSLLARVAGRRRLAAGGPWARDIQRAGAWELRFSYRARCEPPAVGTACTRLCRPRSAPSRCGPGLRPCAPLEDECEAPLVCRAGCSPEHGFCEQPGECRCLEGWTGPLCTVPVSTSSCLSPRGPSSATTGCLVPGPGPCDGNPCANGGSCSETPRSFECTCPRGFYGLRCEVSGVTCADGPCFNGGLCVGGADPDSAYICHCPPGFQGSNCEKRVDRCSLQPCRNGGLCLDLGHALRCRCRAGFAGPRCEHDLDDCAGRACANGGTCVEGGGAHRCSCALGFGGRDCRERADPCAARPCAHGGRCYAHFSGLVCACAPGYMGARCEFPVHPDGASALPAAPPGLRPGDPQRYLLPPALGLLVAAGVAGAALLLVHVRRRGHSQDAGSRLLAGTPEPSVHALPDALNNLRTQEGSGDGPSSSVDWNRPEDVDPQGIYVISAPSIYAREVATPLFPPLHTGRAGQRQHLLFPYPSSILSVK
Assay: phage cell ELISA/FACS on DLL3-expressing cells;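 further: phages incubated 1 h at room temperature with cells overexpressing human DLL3, read by flow cytometry fluorescence, then fixed-cell ELISA with anti-M13-HRP at A370 nm, parental cells alongside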
Bridge positions count the residues as written; N and C are the ends. Ends that are not written are not given here.
assayMetric: binding result

AETVEFYGCSVTWGGYTCTW (disulfide 9-18 (inferred); not fully specified (C-terminus), not shown: M13 pIII coat protein) [SEQ ID NO 74]; binds
AETVEFWGCLGMGYDRTCWW (not fully specified (bridges); cysteine pairing not given here, not shown: M13 pIII coat protein) [SEQ ID NO 64]; binds
AETVEFWTCWETTEGYGCNW (not fully specified (bridges); cysteine pairing not given here, not shown: M13 pIII coat protein) [SEQ ID NO 72]; binds
